Test system: Staphylococcus epidermidis H 6966/08
test summary: In vitro antibacterial susceptibility testing (broth microdilution)
assay setup: H6966/08, 24 h, read-out: MIC SE
Answer each item with its documented MIC.

**Q:** Bench note: what MIC did O=C(N[C@@H](Cc1ccccc1)C(=O)Nc1ccc(Cl)c(Cl)c1)c1cc(Cl)ccc1O [8q] show?
**A:** > 500 µM

**Q:** What would you report for CC(C)[C@H](NC(=O)c1cc(Cl)ccc1O)C(=O)Nc1ccc(Cl)cc1 [8i] ?
**A:** 31.2 µM

**Q:** What would you report for O=C(O)c1cn(C2CC2)c2cc(N3CCNCC3)c(F)cc2c1=O [CPF, ciprofloxacin, reference compound] ?
**A:** 250 µM

**Q:** What would you report for C[C@H](NC(=O)c1cc(Cl)ccc1O)C(=O)Nc1cccc(Cl)c1 [8b] ?
**A:** > 250 µM

**Q:** What would you report for C[C@H](NC(=O)c1cc(Cl)ccc1O)C(=O)Nc1ccc(Cl)c(Cl)c1 [8n] ?
**A:** > 500 µM

**Q:** What would you report for O=C(N[C@@H](Cc1ccccc1)C(=O)Nc1ccc(Cl)cc1)c1ccc(Cl)cc1O [9e] ?
**A:** > 250 µM

**Q:** What would you report for CC1(C)S[C@@H]2[C@H](NC(=O)Cc3ccccc3)C(=O)N2[C@H]1C(=O)O [PEN, penicillin G, reference compound] ?
**A:** 31.6 µM

**Q:** What would you report for C[C@@H](NC(=O)c1cc(Cl)ccc1O)C(=O)Nc1cccc(Cl)c1 [8c] ?
**A:** > 500 µM

**Q:** What would you report for C[C@@H](NC(=O)c1ccc(Cl)cc1O)C(=O)Nc1ccc(Cl)cc1 [9b] ?
**A:** 1.95 µM

**Q:** What would you report for O=C(N[C@H](Cc1ccccc1)C(=O)Nc1ccc(Cl)cc1)c1ccc(Cl)cc1O [9f] ?
**A:** > 500 µM

**Q:** What would you report for CC(C)[C@@H](NC(=O)c1cc(Cl)ccc1O)C(=O)Nc1cccc(Cl)c1 [8e] ?
**A:** 31.2 µM

The reported numbers originate from paper PMC6259751.
